- system: human prostaglandin D2 receptor (DP) (Homo sapiens, UniProt Q13258)
- Construct: endogenous in cells
- Sequence (Q13258 whole entry): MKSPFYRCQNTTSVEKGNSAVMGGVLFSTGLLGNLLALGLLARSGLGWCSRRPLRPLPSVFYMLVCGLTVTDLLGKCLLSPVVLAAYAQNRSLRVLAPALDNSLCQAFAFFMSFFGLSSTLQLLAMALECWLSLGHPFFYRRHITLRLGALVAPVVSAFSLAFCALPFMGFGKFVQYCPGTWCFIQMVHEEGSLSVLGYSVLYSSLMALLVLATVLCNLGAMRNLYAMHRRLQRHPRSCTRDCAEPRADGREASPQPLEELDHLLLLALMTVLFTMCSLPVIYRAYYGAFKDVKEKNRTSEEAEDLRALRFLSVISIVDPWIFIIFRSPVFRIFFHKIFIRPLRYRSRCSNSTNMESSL
- procedure summary: BW245C-induced cAMP accumulation in human platelet rich plasma (hPRP) by HTRF cAMP assay
- measurement context: inhibition of BW245C (25 nM)-induced cAMP accumulation in human platelet-rich plasma
measured attribute: IC50 (nM)
Write the answer as a number in nM, unit excluded.

q: Record request: IC50 value, item COc1nc(NCCc2ccc(OC(F)(F)F)cc2)cc(N2CCC[C@H](CC(=O)O)C2)n1 (single isomer, unassigned) [(R) enantiomer]
a: 155

# evaluate next
q: Need IC50 of COc1nc(NCCc2ccc(OC(F)(F)F)cc2)cc(N2CCC[C@@H](CC(=O)O)C2)n1 [drawing 23] , thanks.
a: 73
